- experiment-summary: Inhibition of 5'-UUCACGGAGAA[flc] mRNA binding to biotinylated His6-tagged Yersinia pseudotuberculosis CsrA measured by fluorescence polarization assay
pIC50: −log10 of the molar value. Where a SMILES comes first, the peptide text is derived from it. Bridges are numbered along the chain shown (N, C = ends). Triazole bridges read from a SMILES are 1,4-linked. [ ]: non-standard residue; d: D form. Ala(indol-2-yl) = N[C@@H](Cc1cc2ccccc2[nH]1)C(=O)O; Dap(N3) = [N-]=[N+]=NC[C@H](N)C(=O)O; Pra = C#CC[C@H](N)C(=O)O
readout-name: pIC50

[
  {
    "compound": "CC(=O)N[C@H]1CSSC[C@@H](C(=O)N[C@@H](Cc2cc3ccccc3[nH]2)C(N)=O)NC(=O)[C@H](CC(C)C)NC(=O)[C@H](CCC(=O)O)NC(=O)[C@H](CO)NC1=O (Ac-CSELC[Ala(indol-2-yl)]-NH2; disulfide 1-5)",
    "lt-gt-eq": "=",
    "endpoint-value": 3.89
  },
  {
    "compound": "CC(=O)N[C@H](C(=O)N[C@H]1CSSC[C@@H](C(=O)N[C@@H](Cc2cc3ccccc3[nH]2)C(N)=O)NC(=O)[C@H](C)NC(=O)[C@H](CCC(=O)O)NC(=O)[C@H](CO)NC1=O)C(C)C (Ac-VCSEAC[Ala(indol-2-yl)]-NH2; disulfide 2-6)",
    "lt-gt-eq": "=",
    "endpoint-value": 4.24
  },
  {
    "compound": "CC(=O)N[C@H](C(=O)N[C@H]1CSSC[C@@H](C(=O)N[C@@H](Cc2cc3ccccc3[nH]2)C(N)=O)NC(=O)[C@H](CC(C)C)NC(=O)[C@H](CCC(=O)O)NC(=O)[C@H](CO)NC1=O)C(C)C (Ac-VCSELC[Ala(indol-2-yl)]-NH2; disulfide 2-6)",
    "lt-gt-eq": "=",
    "endpoint-value": 5.16
  },
  {
    "compound": "CC(=O)N[C@@H](C)C(=O)N[C@H]1CSSC[C@@H](C(=O)N[C@@H](Cc2cc3ccccc3[nH]2)C(N)=O)NC(=O)[C@H](CC(C)C)NC(=O)[C@H](CCC(=O)O)NC(=O)[C@H](CO)NC1=O (Ac-ACSELC[Ala(indol-2-yl)]-NH2; disulfide 2-6)",
    "lt-gt-eq": "=",
    "endpoint-value": 3.94
  },
  {
    "compound": "CC(C)C[C@@H]1NC(=O)[C@H](CCC(=O)O)NC(=O)[C@H](CO)NC(=O)[C@@H](NC(=O)[C@@H](N)C(C)C)CSSC[C@@H](C(=O)N[C@@H](Cc2cc3ccccc3[nH]2)C(N)=O)NC1=O (H-VCSELC[Ala(indol-2-yl)]-NH2; disulfide 2-6)",
    "lt-gt-eq": "=",
    "endpoint-value": 4.56
  },
  {
    "compound": "CC(=O)N[C@H](C(=O)N[C@H]1Cn2cc(nn2)C[C@@H](C(=O)N[C@@H](Cc2c[nH]c3ccccc23)C(N)=O)NC(=O)[C@H](CC(C)C)NC(=O)[C@H](CCC(=O)O)NC(=O)[C@H](CO)NC1=O)C(C)C (Ac-V[Dap(N3)]SEL[Pra]W-NH2; triazole 2-6)",
    "lt-gt-eq": "=",
    "endpoint-value": 4.03
  },
  {
    "compound": "CC(=O)N[C@H](C(=O)N[C@H]1CSSC[C@@H](C(=O)N[C@@H](Cc2cc3ccccc3[nH]2)C(N)=O)NC(=O)[C@H](CC(C)C)NC(=O)[C@H](CCC(=O)O)NC(=O)[C@H](C)NC1=O)C(C)C (Ac-VCAELC[Ala(indol-2-yl)]-NH2; disulfide 2-6)",
    "lt-gt-eq": "<",
    "endpoint-value": 3.00
  },
  {
    "compound": "CC(=O)N[C@H](C(=O)N[C@H]1CSSC[C@@H](C(N)=O)NC(=O)[C@H](CC(C)C)NC(=O)[C@H](CCC(=O)O)NC(=O)[C@H](CO)NC1=O)C(C)C (Ac-VCSELC-NH2; disulfide 2-6)",
    "lt-gt-eq": "<",
    "endpoint-value": 3.00
  }
]

----------
- experiment-summary: Inhibition of 5'-UUCACGGAGAA[flc] mRNA binding to biotinylated His6-tagged Yersinia pseudotuberculosis CsrA measured by fluorescence polarization assay
readout-name: IC50

[
  {
    "substance": "Ac-VASELAW-NH2",
    "readout-name": "IC50",
    "endpoint-value": "> 1000 µM"
  }
]

----------
- experiment-summary: Inhibition of 5'-UUCACGGAGAA[flc] mRNA binding to biotinylated His6-tagged Yersinia pseudotuberculosis CsrA measured by fluorescence polarization assay
Where a SMILES comes first, the peptide text is derived from it. Bridges are numbered along the chain shown (N, C = ends). Triazole bridges read from a SMILES are 1,4-linked. [ ]: non-standard residue; d: D form. Dap(N3) = [N-]=[N+]=NC[C@H](N)C(=O)O; Aha = [N-]=[N+]=NCC[C@H](N)C(=O)O; Pra = C#CC[C@H](N)C(=O)O

[
  {
    "compound": "CC(=O)N[C@H](C(=O)N[C@H]1Cc2cnnn2CC[C@@H](C(=O)N[C@@H](Cc2c[nH]c3ccccc23)C(N)=O)NC(=O)[C@H](CC(C)C)NC(=O)[C@H](CCC(=O)O)NC(=O)[C@H](CO)NC1=O)C(C)C",
    "lt-gt-eq": "=",
    "IC50, µM": 337
  },
  {
    "compound": "CC(=O)N[C@H](C(=O)N[C@H]1Cc2cn(nn2)C[C@@H](C(=O)N[C@@H](Cc2c[nH]c3ccccc23)C(N)=O)NC(=O)[C@H](CC(C)C)NC(=O)[C@H](CCC(=O)O)NC(=O)[C@H](CO)NC1=O)C(C)C (Ac-V[Pra]SEL[Dap(N3)]W-NH2; triazole 2-6)",
    "lt-gt-eq": "=",
    "IC50, µM": 35.3
  },
  {
    "compound": "CC(=O)N[C@H](C(=O)N[C@H]1CSSC[C@@H](C(=O)N[C@@H](C)C(N)=O)NC(=O)[C@H](CC(C)C)NC(=O)[C@H](CCC(=O)O)NC(=O)[C@H](CO)NC1=O)C(C)C (Ac-VCSELCA-NH2; disulfide 2-6)",
    "lt-gt-eq": ">",
    "IC50, µM": 500
  },
  {
    "compound": "CC(=O)N[C@H](C(=O)N[C@H]1Cc2cn(nn2)CC[C@@H](C(=O)N[C@@H](Cc2c[nH]c3ccccc23)C(N)=O)NC(=O)[C@H](CC(C)C)NC(=O)[C@H](CCC(=O)O)NC(=O)[C@H](CO)NC1=O)C(C)C (Ac-V[Pra]SEL[Aha]W-NH2; triazole 2-6)",
    "lt-gt-eq": "=",
    "IC50, µM": 76
  },
  {
    "compound": "CC(=O)N[C@H](C(=O)N[C@H]1Cc2cnnn2C[C@@H](C(=O)N[C@@H](Cc2c[nH]c3ccccc23)C(N)=O)NC(=O)[C@H](CC(C)C)NC(=O)[C@H](CCC(=O)O)NC(=O)[C@H](CO)NC1=O)C(C)C",
    "lt-gt-eq": "=",
    "IC50, µM": 178
  },
  {
    "compound": "CC(=O)N[C@H](C(=O)N[C@H]1CCn2nncc2C[C@@H](C(=O)N[C@@H](Cc2c[nH]c3ccccc23)C(N)=O)NC(=O)[C@H](CC(C)C)NC(=O)[C@H](CCC(=O)O)NC(=O)[C@H](CO)NC1=O)C(C)C",
    "lt-gt-eq": "=",
    "IC50, µM": 309
  }
]

----------
- tested-system: Carbon storage regulator (Escherichia coli, UniProt P69913)
- Sequence (P69913 whole entry): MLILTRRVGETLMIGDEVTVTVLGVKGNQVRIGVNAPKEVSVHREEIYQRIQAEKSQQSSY
pIC50: −log10 of the molar value. Where a SMILES comes first, the peptide text is derived from it. Bridges are numbered along the chain shown (N, C = ends). Triazole bridges read from a SMILES are 1,4-linked. [ ]: non-standard residue; d: D form. Ala(indol-2-yl) = N[C@@H](Cc1cc2ccccc2[nH]1)C(=O)O; Dap(N3) = [N-]=[N+]=NC[C@H](N)C(=O)O; Aha = [N-]=[N+]=NCC[C@H](N)C(=O)O; Pra = C#CC[C@H](N)C(=O)O
Assign met to entries whose pIC50 meets or exceeds 4; assign not met to the rest.

[
  {
    "compound": "CC(=O)N[C@H](C(=O)N[C@H]1Cc2cnnn2CC[C@@H](C(=O)N[C@@H](Cc2c[nH]c3ccccc23)C(N)=O)NC(=O)[C@H](CC(C)C)NC(=O)[C@H](CCC(=O)O)NC(=O)[C@H](CO)NC1=O)C(C)C",
    "qualitative-label": "met"
  },
  {
    "compound": "CC(=O)N[C@H](C(=O)N[C@H]1Cc2cn(nn2)CC[C@@H](C(=O)N[C@@H](Cc2c[nH]c3ccccc23)C(N)=O)NC(=O)[C@H](CC(C)C)NC(=O)[C@H](CCC(=O)O)NC(=O)[C@H](CO)NC1=O)C(C)C (Ac-V[Pra]SEL[Aha]W-NH2; triazole 2-6)",
    "qualitative-label": "met"
  },
  {
    "compound": "CC(=O)N[C@H](C(=O)N[C@H]1Cc2cnnn2C[C@@H](C(=O)N[C@@H](Cc2c[nH]c3ccccc23)C(N)=O)NC(=O)[C@H](CC(C)C)NC(=O)[C@H](CCC(=O)O)NC(=O)[C@H](CO)NC1=O)C(C)C",
    "qualitative-label": "met"
  },
  {
    "compound": "CC(=O)N[C@H](C(=O)N[C@H]1Cc2cn(nn2)C[C@@H](C(=O)N[C@@H](Cc2c[nH]c3ccccc23)C(N)=O)NC(=O)[C@H](CC(C)C)NC(=O)[C@H](CCC(=O)O)NC(=O)[C@H](CO)NC1=O)C(C)C (Ac-V[Pra]SEL[Dap(N3)]W-NH2; triazole 2-6)",
    "qualitative-label": "met"
  },
  {
    "compound": "CC(=O)N[C@H](C(=O)N[C@H]1CSSC[C@@H](C(=O)N[C@@H](Cc2cc3ccccc3[nH]2)C(N)=O)NC(=O)[C@H](CC(C)C)NC(=O)[C@H](CCC(=O)O)NC(=O)[C@H](CO)NC1=O)C(C)C (Ac-VCSELC[Ala(indol-2-yl)]-NH2; disulfide 2-6)",
    "qualitative-label": "not met"
  },
  {
    "compound": "CC(=O)N[C@H](C(=O)N[C@H]1Cn2cc(nn2)C[C@@H](C(=O)N[C@@H](Cc2c[nH]c3ccccc23)C(N)=O)NC(=O)[C@H](CC(C)C)NC(=O)[C@H](CCC(=O)O)NC(=O)[C@H](CO)NC1=O)C(C)C (Ac-V[Dap(N3)]SEL[Pra]W-NH2; triazole 2-6)",
    "qualitative-label": "met"
  }
]
